molecular target: 12-lipoxygenase (Rattus norvegicus, UniProt F1LQ70); construct: The platelets were then sonicated at 4° C. and centrifuged at 100,000×g for 30 minutes to obtain a supernatant as a 12-lipoxygenase enzyme solution; from tissue; host or cells: Sprague Dawley rat platelets (from aortic blood), sonicated, 100,000 x g supernatant; experiment: 12-lipoxygenase inhibition assay (rat platelet supernatant, arachidonic acid, HPLC of 12-HETE); type: biochemical, Sprague Dawley male rat (platelets); conditions: Test Example 2, Table 2; read-out: IC50 value of 12-lipoxygenase
Sequence (F1LQ70 whole entry): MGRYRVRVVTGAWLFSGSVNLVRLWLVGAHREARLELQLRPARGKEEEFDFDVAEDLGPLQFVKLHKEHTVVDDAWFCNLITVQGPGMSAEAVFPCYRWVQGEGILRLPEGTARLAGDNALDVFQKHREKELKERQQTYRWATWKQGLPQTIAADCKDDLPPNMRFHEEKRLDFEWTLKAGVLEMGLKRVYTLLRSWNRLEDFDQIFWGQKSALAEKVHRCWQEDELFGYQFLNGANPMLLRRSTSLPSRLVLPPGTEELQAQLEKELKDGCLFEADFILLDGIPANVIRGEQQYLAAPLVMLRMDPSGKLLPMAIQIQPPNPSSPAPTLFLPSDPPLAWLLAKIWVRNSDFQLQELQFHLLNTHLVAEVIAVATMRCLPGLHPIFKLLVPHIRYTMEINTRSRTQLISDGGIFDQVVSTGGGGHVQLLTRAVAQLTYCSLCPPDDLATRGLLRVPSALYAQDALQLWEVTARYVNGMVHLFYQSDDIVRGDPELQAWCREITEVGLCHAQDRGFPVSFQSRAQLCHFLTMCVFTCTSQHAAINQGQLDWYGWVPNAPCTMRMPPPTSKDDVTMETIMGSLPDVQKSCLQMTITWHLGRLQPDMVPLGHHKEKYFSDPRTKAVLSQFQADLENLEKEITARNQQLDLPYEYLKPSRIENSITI
pIC50 reference
// pIC50 here means minus log10 of the molar concentration (mol/L)

A selection of reference data follows.
[
  {
    "Compound": "O=c1oc2c(O)c(O)ccc2cc1-c1cccc(Cl)c1 [Example 22, 3-(3-chlorophenyl)-7,8-dihydroxycoumarin]",
    "Experimental System": "12-lipoxygenase (Rattus norvegicus, UniProt F1LQ70)",
    "pIC50": 8.02
  },
  {
    "Compound": "Cc1ccc(-c2cc3cc(O)c(O)cc3oc2=O)cc1",
    "Experimental System": "12-lipoxygenase (Rattus norvegicus, UniProt F1LQ70)",
    "pIC50": 7.96
  }
]

So, Cc1ccc(-c2cc3cc(O)c(O)cc3oc2=O)o1 ? Its pIC50 was 7.85

So, Cc1cccc(-c2cc3cc(O)c(O)cc3oc2=O)c1 ? Its pIC50 was 7.96

---

Target: 5-lipoxygenase (Rattus norvegicus)
Construct: host or cells: RBL-1 (rat basophilic leukemia cells)
Sequence (P12527 1-673): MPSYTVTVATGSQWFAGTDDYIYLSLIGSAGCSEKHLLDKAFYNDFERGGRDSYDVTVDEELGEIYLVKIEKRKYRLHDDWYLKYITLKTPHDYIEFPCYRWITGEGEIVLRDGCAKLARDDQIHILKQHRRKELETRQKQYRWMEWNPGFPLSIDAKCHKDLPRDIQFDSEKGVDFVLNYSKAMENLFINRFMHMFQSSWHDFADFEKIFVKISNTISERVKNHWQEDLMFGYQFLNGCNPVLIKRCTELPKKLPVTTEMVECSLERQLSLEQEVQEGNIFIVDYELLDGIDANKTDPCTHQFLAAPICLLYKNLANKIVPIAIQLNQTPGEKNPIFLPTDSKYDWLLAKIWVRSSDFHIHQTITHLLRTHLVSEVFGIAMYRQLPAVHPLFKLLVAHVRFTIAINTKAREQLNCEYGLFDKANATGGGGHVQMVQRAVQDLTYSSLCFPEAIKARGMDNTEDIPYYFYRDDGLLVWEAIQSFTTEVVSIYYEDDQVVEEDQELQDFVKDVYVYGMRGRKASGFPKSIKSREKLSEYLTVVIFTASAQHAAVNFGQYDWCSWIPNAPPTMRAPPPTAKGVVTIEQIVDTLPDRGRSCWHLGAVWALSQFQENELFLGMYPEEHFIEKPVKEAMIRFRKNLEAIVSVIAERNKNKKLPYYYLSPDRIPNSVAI
Test: 5-lipoxygenase inhibition assay (RBL-1 supernatant, arachidonic acid, HPLC of 5-HETE)
Assay type: biochemical, rat (basophilic leukemia cells RBL-1, ATCC CRL1378)
Details: Test Example 2, Table 2; read-out: IC50 value of 5-lipoxygenase
Readout: IC50 (µM)
// return numeric value only (unit: µM, not printed)

A selection of reference data follows.
[
  {
    "Molecule": "O=c1oc2cc(O)c(O)cc2cc1-c1ccc(C(F)(F)F)cc1 [Example 14]",
    "Readout": "IC50",
    "Measured Number": 0.27
  },
  {
    "Molecule": "O=c1oc2cc(O)c(O)cc2cc1-c1ccsc1 [Example 16]",
    "Readout": "IC50",
    "Measured Number": 0.42
  },
  {
    "Molecule": "Cc1ccc(-c2cc3cc(O)c(O)cc3oc2=O)cc1 [Example 11]",
    "Readout": "IC50",
    "Measured Number": 0.18
  }
]

Then there is this molecule:
O=c1oc2cc(O)c(O)cc2cc1-c1ccccc1 [Example 6, 3-phenyl-6,7-dihydroxycoumarin] tested on 5-lipoxygenase (Rattus norvegicus) gave IC50: 0.27
